src = the RNAGym collection of RNA variant scans (doi:10.7554/elife.80360)

B1: HDV Ribozyme (parent)
chain: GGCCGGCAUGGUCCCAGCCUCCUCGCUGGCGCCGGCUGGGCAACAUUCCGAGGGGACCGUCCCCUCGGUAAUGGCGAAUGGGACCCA

# Variants of: B1
# experiment notes: self-cleavage, relative activity (ratio to wild type); higher = more cleavage; co-transcriptional
Respond with criterion met for self-cleavage values of 0.3 and above, criterion not met for values below.

Consider the following illustrative entries.
mutation key	category
C58A G76U	criterion met
G54U G74A	criterion met
C75U C86A	criterion not met
G1C G54C	criterion not met
C32G C48U	criterion not met

Dear colleague, could you confirm whether G25U C32A has self-cleavage at or above 0.3?
criterion not met

Dear colleague, could you confirm whether G2C C86U has self-cleavage at or above 0.3?
criterion not met

Dear colleague, could you confirm whether G31U C84U has self-cleavage at or above 0.3?
criterion met

Dear colleague, could you confirm whether C26U C58U has self-cleavage at or above 0.3?
criterion met

Dear colleague, could you confirm whether G5A C58A has self-cleavage at or above 0.3?
criterion not met

Dear colleague, could you confirm whether G11C C32A has self-cleavage at or above 0.3?
criterion not met
